Assay: Primary qHTS for Inhibitors of ATXN expression; also: nearly all actives have a fitted effect of over 55% in size
Details: HEK-293 ATXN2-luciferase reporter, luminescence, 24 h; series mostly up to 57 µM
About 2,600 (0.72%) of roughly 360,000 compounds were called active. Inconclusive results (about 5%) are left out. Calls follow the shape of the dose curve; as a rule, active = well fitted inhibition curve with a large enough effect; inconclusive = small, poorly fitted or top-dose-only effect; inactive = no such curve, though single readings can be large or run the other way. Many of the other results were omitted from the sample, so actives are more common in it than they were.
Hi there, use one of these labels in your reply, thanks! TRUE = active, FALSE = inactive

How was Cc1cccc(N2CCN(C(=O)c3ccc4c(c3)CCN4S(=O)(=O)c3ccccc3)CC2)c1C classified in this test?
FALSE

How was COc1ccccc1-n1nnnc1SCC(=O)NC(=O)Cc1ccccc1 classified in this test?
FALSE

Others:
How was CC(C)Cn1c(C2CC(=O)N(c3ccccc3Cl)C2)nc2ccccc21 (stereo not given) classified in this test?
FALSE

How was Cc1cc(C)c2nc3nc(C)cc(C)c3c(N)c2c1 classified in this test?
TRUE

How was CN(C)C(=O)c1cccc(-c2cnc3c(NC=O)cc(-c4ccc(F)cc4)cn23)c1 classified in this test?
TRUE

* * *

Assay: Primary qHTS for Inhibitors of ATXN expression; also: nearly all actives have a fitted effect of over 55% in size
Settings: HEK-293 ATXN2-luciferase reporter, luminescence, 24 h; series mostly up to 57 µM
Screen size: about 360,000 compounds; about 2,600 (0.72%) were called active. Roughly 5% stayed inconclusive and do not appear here. The call rests on the fitted dose curve; in most records, active means well fitted inhibition curve with a large enough effect; inconclusive means small, poorly fitted or top-dose-only effect; inactive means no such curve, though single readings can be large or run the other way. What follows is part of a selection rich in actives, with near analogues and random picks from the rest.
Hi there, use one of these labels in your reply, thanks! active, inactive

Please review the entries below; each comes with its answer.
How was COc1cc(C(CCN2CCN(c3ccccc3)CC2)c2c(OC)cc(OC)c3ccc(=O)oc23)cc(OC)c1OC (stereo not given) classified in this test?
inactive

How was COc1ccc(CNC(=O)CSc2nc3ccccc3nc2Cc2ccccc2)cc1 classified in this test?
inactive

How was COc1cccc(-c2cccc(NC(=O)C3CCN(C4CCC4)CC3)c2)c1 classified in this test?
inactive

Field: next compound
How was Cc1onc(C(=O)NCc2ccc(F)cc2)c1[N+](=O)[O-] classified in this test?
inactive

* * *

Assay: Primary qHTS for Inhibitors of ATXN expression; also: nearly all actives have a fitted effect of over 55% in size
Details: HEK-293 ATXN2-luciferase reporter, luminescence, 24 h; series mostly up to 57 µM
Out of some 360,000 compounds screened, about 2,600 (0.72%) were called active. Not shown: some 5% with an inconclusive outcome. Calls follow the shape of the dose curve; as a rule, active = well fitted inhibition curve with a large enough effect; inconclusive = small, poorly fitted or top-dose-only effect; inactive = no such curve, though single readings can be large or run the other way. Only a selection was taken, and actives are over-represented in it overall.
Hi there, use one of these labels in your reply, thanks! label 1 for active, label 0 for inactive

Please review the entries below; each comes with its answer.
How was CCc1ccc(CNC(=O)C2CCN(c3nnc(C)c4c(C)n(-c5ccc(C)cc5)nc34)CC2)cc1 classified in this test?
label 1

How was Cc1ccc2nc(CNC(=O)c3ccccc3)[nH]c2c1 classified in this test?
label 0

How was Cc1cc(NC(=O)c2cccc(Cl)c2)ccc1-c1cc2ccccc2oc1=O classified in this test?
label 0

How was C=CCn1c(C)cc(C2=NNC(=NCC)SC2)c1C classified in this test?
label 1

How was O=C(NCCCn1ccnc1)c1ccccc1F classified in this test?
label 0

Field: next compound
How was CSc1ncnc2c1ncn2CC(=O)C1CCC2C3CCC4=CC(=O)CCC4(C)C3CCC12C (configuration not stated) classified in this test?
label 1

* * *

Assay: Primary qHTS for Inhibitors of ATXN expression; also: nearly all actives have a fitted effect of over 55% in size; also: potency is read from the fitted curve at half-maximal effect
Settings: HEK-293 ATXN2-luciferase reporter, luminescence, 24 h; series mostly up to 57 µM
Screen size: about 360,000 compounds; about 2,600 (0.72%) were called active. Inconclusive results (about 5%) are left out. What follows is part of a selection rich in actives, with near analogues and random picks from the rest.
OBSERVATION TYPE: Potency

Worked cases, Potency given:
Consider the compound c1ccc2c(c1)C(=NC1CCCCC1)NC2=NC1CCCCC1 . State its measured Potency.
28.2 µM (active)

Consider the compound S=C(NCCCc1cnc[nH]1)NCCCN(Cc1ccc(Cl)c(Cl)c1)c1ccc(Br)cn1 . State its measured Potency.
15.8 µM (active)

Consider the compound O=C(NNc1c2ccccc2nc2ccccc12)c1cc2ccccc2cc1O . State its measured Potency.
inactive

Consider the compound CC(=O)Nc1ccc(S(=O)(=O)N(C)c2nc3ccccc3nc2Cl)cc1 . State its measured Potency.
inactive

Consider the compound CC(=O)Nc1ccc(Nc2c3ccccc3nc3ccccc23)cc1 . State its measured Potency.
2.51 µM (active)

Attention now shifts to the item below.
Consider the compound CC(NCc1ccc2c(c1)nc(NC(=O)c1ccc(-c3cn[nH]c3)s1)n2CC(C)(C)O)C(C)(C)C (stereo not given) . State its measured Potency.
0.968 µM (active)
